# TARGET UNDER TEST: HCAR1 (GPR81) (Homo sapiens)
# Sequence (Q9BXC0 whole entry): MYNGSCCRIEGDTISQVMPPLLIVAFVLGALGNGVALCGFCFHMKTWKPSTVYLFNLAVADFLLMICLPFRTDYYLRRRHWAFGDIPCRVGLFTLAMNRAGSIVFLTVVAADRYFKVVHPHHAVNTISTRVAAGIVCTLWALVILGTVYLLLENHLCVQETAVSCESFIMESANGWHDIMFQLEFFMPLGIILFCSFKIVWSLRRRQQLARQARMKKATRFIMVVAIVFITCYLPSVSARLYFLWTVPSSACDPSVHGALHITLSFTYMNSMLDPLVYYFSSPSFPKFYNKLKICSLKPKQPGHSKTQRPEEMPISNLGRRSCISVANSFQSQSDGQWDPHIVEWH
# ASSAY NOTES: ebBRET Gαi2 activation
# Type: cell-based
# MEASUREMENT SETUP: Gαi2, 37 °C, agonist
// reported EC50 per item
Response body: numeric value in µM, unit text excluded.

Reference set (3 entries):
CCOc1cc(Cl)c(-c2ccc(-c3nc4ccccc4s3)c(=O)[nH]2)cc1N1CCOCC1 6.8
CCOc1cc(Cl)c(C(=O)NC(=O)Nc2ncc(C)s2)cc1N1CCOCC1 1.78
CCOc1cc(Cl)c(C(=O)NC(=O)Nc2nc3c(s2)CCCC3)cc1N1CCOCC1 2

Attention now turns to another entry.
Item under review: CCOc1cc(Cl)c(C(=O)NC(=O)Nc2nc3c(s2)CN(C(C)=O)CC3)cc1N1CCOCC1 . Reported EC50? 7.1

src = paper doi:10.1101/2025.05.02.651384v1
